The origin of these recorded values is the supplement of paper PMC7125110.

B1: glmS ribozyme (parent)
chain: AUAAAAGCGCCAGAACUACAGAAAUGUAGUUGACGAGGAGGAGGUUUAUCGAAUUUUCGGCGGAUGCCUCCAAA

# Variants of: B1
# experiment-notes: kcat; higher = faster cleavage; RNA array
# measurement-conditions: with glucosamine-6-phosphate
Fewer inactive variants are shown than the library holds.
quantity-kind: kcat (s⁻¹)
Your answer should be a plain number; it is taken to be in s⁻¹.

Record summary for "AUAAAAGCGCCAGAACUACAGAAAUGUAGUUGACGAGGAGCAGGUUUAUCGACUUUUCGGCGGAUGCCUCCAAA" : reported kcat = 0.000159

Record summary for "AUAAAAGCGCUAGAACUACAGAAAUGUAGUUGACGAGGAGGAGGGUUAUCGAAAUUUCGGCGGAUGCCUCCAAA" : reported kcat = 0.000206

Record summary for "AUAAAAGCGCCAGAACUACAGAAAUGUAGUUGACGAGGAGGAGCUUUAUCGAACUUUCGGCGGAUGCCUCCAAA" : reported kcat = 0.000264

Record summary for "AUAAAAGCGCCAGAACUACAGAAAUGUAGUUGACGAGGAGGAGGUUUUUCGAAAUUUCGGCGGAUGCCUCCAAA" : reported kcat = 0.000682

Record summary for "AUAAAAGCGCCAGAACUACAGAAAUGUAGUUGACGAGGAGGAGGUUUAGCGAAGUUUCGGCGGAUGACUCCAAA" : reported kcat = 0.00023

Record summary for "AUAAAAGCGCCAGAACUACAGAAAUGUAGUUCACGAGGAGGAGGUUUAUGGAAUUUUCGGCGGAUGCCUCCAAA" : reported kcat = 5.17e-05

Record summary for "AUAAAAGCGCCAGAACUACAGAAAUGUAGUUGACGACGAGGAGGUUUAUCGAACUUUCGGCGGAUGCCUCCAAA" : reported kcat = 6.94e-05

Record summary for "AUAAAAGCGCCAGAACUACAGAAAUGUAGUUGACGAGGAGGAGGUAAAUCGAAUUUUCGGCGGAUGCCUCCAAA" : reported kcat = 0.00774

Record summary for "AUAAAAGCGCUAGAACUACAGAAAUGUAGUUGACGAAGAGGAGGUUUAUCGAAUUUUCGGCGGAUGCCUCCAAA" : reported kcat = 7.88e-05

Record summary for "AUAAAAGCGCCCGCACUACAGAAAUGUAGUUGACGAGGAGGAGGUUUAUCGAAUUUUCGGCGGAUGCCUCCAAA" : reported kcat = 0.00082

Record summary for "AUAAAAGCGCCAGAACUACAGAAAUGUAGUUGACGAGGAGGAGGUUUAUCGAAUUUUCGGCGGAUACCUCGAAA" : reported kcat = 0.00165

Record summary for "AUAAAAGCGCCAGAUCUACAGAAAUGUAGUUGACGAGGAGGAGGUUUAUCGAAUUUUCGGCGGAUGCUUCCAAA" : reported kcat = 0.000466

Record summary for "AUAAAAGCGCCAGAACUACAGAAAUGUAGUUGACGAGGAGGAGGUUUAUUGGAUUUUCGGCGGAUGCCUCCAAA" : reported kcat = 1.11e-05

Record summary for "AUAAAAGCGCCAGAACUACAGAAAUGUAGUUCACGAGGAGGAGGUUUAUCGAAUUUUGGGCGGAUGCCUCCAAA" : reported kcat = 8.83e-05

Record summary for "AUAAAAGCGCCAGAACUACAGAAAUGUAGUUGACGAGGAGGAGGUAUAUCGAAUUUUCGGCGGAUGCGUCCAAA" : reported kcat = 2.56e-05

Record summary for "AUAAAAGCGCCAGAACUACAGAAAUGUAGAUGACGAGGAGAAGGUUUAUCGAAUUUUCGGCGGAUGCCUCCAAA" : reported kcat = 0.000441

Record summary for "AUAAAAGCGGCAGAACUACAGAAAUGUAGUUGACGAGGAGGAGGUUUAUAGAAUUUUCGGCGGAUGCCUCUAAA" : reported kcat = 1.87e-05

Record summary for "AUAAAAGCGCCAGAACUACAGAAAUGUAGCUGACGAGGAGGAGGUUUAUCGAAUUUUCGGCGGAUGCCUGCAAA" : reported kcat = 5.67e-05

Record summary for "AUAAAAGCGCCAGAGCUACAGAAAUGUAGUUGACGAUGAGGAGGUUUAUCGAAAAUUCGCCGGAUGCGUCCAAA" : reported kcat = 2.16e-05

Record summary for "AUAAAAGCGCCAGAACUACAGAAAUGUAGUUGACGAGGAGGAGGUAUAUCGAAUUUUCGGCGGAUGUCUCCAAA" : reported kcat = 0.00326

Record summary for "AUAAAAGCGCCAGAACUACAGAAAUGUAGUUGACGAGGAGGAGGUUUUUCGAAUUUUCGGCGGAUGCCUCAAAA" : reported kcat = 0.000129
